target: Vasopressin V1a receptor (Homo sapiens); assay: Activation of human 3X-HA N-tagged AVP1a expressed in CHO-K1 cells incubated for 10 mins by cell Western assay; type: cell-based
Bridge positions count the residues as written; N and C are the ends. Square brackets hold non-standard residues; d marks the D form. Peptide text beside a SMILES is read from it. * marks the point of attachment. βGlc = OC[C@H]1O[C@@H](*)[C@H](O)[C@@H](O)[C@@H]1O; Dap = NC[C@H](N)C(=O)O; Aib = CC(C)(N)C(=O)O
READOUT NAME: EC50

MOLECULE	VAL
CC[C@H](C)[C@@H]1NC(=O)[C@H](Cc2ccc(O)cc2)NC(=O)[C@@H](N)CC(=O)NC[C@@H](C(=O)N2CCC[C@H]2C(=O)N[C@@H](CC(C)C)C(=O)NCC(N)=O)NC(=O)[C@H](CC(N)=O)NC(=O)[C@H](CCC(N)=O)NC1=O (H-DYIQN[Dap]PLG-NH2; lactam 1-6)	Not Active
CC[C@H](C)[C@@H]1NC(=O)[C@H](Cc2ccc(O)cc2)NC(=O)[C@@H](N)CCC(=O)NC[C@@H](C(=O)N2CCC[C@H]2C(=O)N[C@@H](CC(C)C)C(=O)NCC(N)=O)NC(=O)[C@H](CC(N)=O)NC(=O)[C@H](CCC(N)=O)NC1=O (H-EYIQN[Dap]PLG-NH2; lactam 1-6)	Not Active
CC[C@H](C)[C@@H]1NC(=O)[C@H](Cc2ccc(O)cc2)NC(=O)[C@@H](N)CCC(=O)NC[C@@H](C(=O)N2CCC[C@H]2C(=O)NC(C)(C)C(=O)N[C@@H](CO[C@@H]2O[C@H](CO)[C@@H](O)[C@H](O)[C@H]2O)C(N)=O)NC(=O)[C@H](CC(N)=O)NC(=O)[C@H](CCC(N)=O)NC1=O (H-EYIQN[Dap]P[Aib]S(βGlc)-NH2; lactam 1-6)	Not Active

---

target: Vasopressin V1a receptor (Homo sapiens, UniProt P37288); assay: Activation of human 3X-HA N-tagged AVP1a expressed in CHO-K1 cells incubated for 10 mins by cell Western assay; assay type: cell-based
Sequence (P37288 whole entry): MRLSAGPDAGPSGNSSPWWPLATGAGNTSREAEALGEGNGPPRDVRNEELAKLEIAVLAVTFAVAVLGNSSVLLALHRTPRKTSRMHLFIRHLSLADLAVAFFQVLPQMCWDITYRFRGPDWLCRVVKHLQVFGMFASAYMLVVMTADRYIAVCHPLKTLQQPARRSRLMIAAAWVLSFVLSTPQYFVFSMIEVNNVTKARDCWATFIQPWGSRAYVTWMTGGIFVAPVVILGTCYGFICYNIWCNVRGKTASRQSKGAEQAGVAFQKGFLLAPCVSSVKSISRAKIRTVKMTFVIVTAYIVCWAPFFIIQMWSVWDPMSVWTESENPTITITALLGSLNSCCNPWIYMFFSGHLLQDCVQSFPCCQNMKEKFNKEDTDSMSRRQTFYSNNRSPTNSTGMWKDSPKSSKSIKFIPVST
Bridge positions count the residues as written; N and C are the ends. Square brackets hold non-standard residues; d marks the D form. Peptide text beside a SMILES is read from it. * marks the point of attachment. X1 = OC[C@H]1O[C@@H](O[C@H]2[C@H](O)[C@@H](O)[C@H](*)O[C@@H]2CO)[C@H](O)[C@@H](O)[C@H]1O; βGlc = OC[C@H]1O[C@@H](*)[C@H](O)[C@@H](O)[C@@H]1O; Dap = NC[C@H](N)C(=O)O

MOLECULE	EC50
CC[C@H](C)[C@@H]1NC(=O)[C@H](Cc2ccc(O)cc2)NC(=O)[C@@H](N)CC(=O)NC[C@@H](C(=O)N2CCC[C@H]2C(=O)NC(C)(C)C(=O)N[C@H](CO[C@@H]2O[C@H](CO)[C@@H](O)[C@H](O)[C@H]2O)C(N)=O)NC(=O)[C@H](CC(N)=O)NC(=O)[C@H](CCC(N)=O)NC1=O	Not Active
CC[C@H](C)[C@@H]1NC(=O)[C@H](Cc2ccc(O)cc2)NC(=O)[C@@H](N)CCC(=O)NC[C@@H](C(=O)N2CCC[C@H]2C(=O)N[C@@H](CC(C)C)C(=O)N[C@@H](CO[C@@H]2O[C@H](CO)[C@@H](O)[C@H](O)[C@H]2O)C(N)=O)NC(=O)[C@H](CC(N)=O)NC(=O)[C@H](CCC(N)=O)NC1=O (H-EYIQN[Dap]PLS(βGlc)-NH2; lactam 1-6)	Not Active
CC[C@H](C)[C@@H]1NC(=O)[C@H](Cc2ccc(O)cc2)NC(=O)[C@@H](N)CC(=O)NC[C@@H](C(=O)N2CCC[C@H]2C(=O)N[C@@H](CC(C)C)C(=O)N[C@@H](CO[C@@H]2O[C@H](CO)[C@@H](O[C@@H]3O[C@H](CO)[C@H](O)[C@H](O)[C@H]3O)[C@H](O)[C@H]2O)C(N)=O)NC(=O)[C@H](CC(N)=O)NC(=O)[C@H](CCC(N)=O)NC1=O (H-DYIQN[Dap]PLS(X1)-NH2; lactam 1-6)	Not Active

Sourced from ChEMBL document CHEMBL5223184
